// data source = patent US20240189443A1

TARGET OF ASSAY: T1, HEK293T/hPD-L1 (Homo sapiens, UniProt Q9NZQ7)
T1 construct: expressed in transfected cells; host or cells: HEK293T
T1 sequence (Q9NZQ7 19-290): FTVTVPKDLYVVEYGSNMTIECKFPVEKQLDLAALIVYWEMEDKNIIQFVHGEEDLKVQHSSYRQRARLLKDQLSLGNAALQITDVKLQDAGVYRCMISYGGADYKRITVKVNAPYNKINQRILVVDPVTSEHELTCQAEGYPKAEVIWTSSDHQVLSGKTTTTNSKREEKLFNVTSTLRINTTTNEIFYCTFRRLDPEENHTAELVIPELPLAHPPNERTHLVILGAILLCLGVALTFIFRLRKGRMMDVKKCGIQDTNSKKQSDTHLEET
EXPERIMENT: Human PD-L1 binding activity assay of candidate anti-human PD-L1 nanobodies (flow cytometry)
MEASUREMENT CONDITIONS: nanobody 10 μg/mL

MOLECULE	Binding activity with human PD-L1
h_Nb12: anti-human PD-L1 nanobody, VHH SEQ ID NO: 44 (protein, h_Nb12 Amino acid sequence of VHH) VHH: DVQLQESGGGLVQAGGSLRLSCAASGRTFSSRAMGWFRQAPGKEREFVAAISGSGRNTYYADSVKGRFTISRDNAKNSVNLQMNSLKPEDTAVYYCNAAGGGITIATMTQRTQYDYWGQGTQVTVSS	good binding activity
h_Nb2: anti-human PD-L1 nanobody, VHH SEQ ID NO: 25 (protein, h_Nb2 Amino acid sequence of VHH) VHH: DVQLQESGGGLVQPGGSLRLSCAASGFTFGDRWMYWLRQAPGKGLEWVSSINPAGRSTYYADSVKGRFTISRDNAKNTLYLQMNSLKSEDTAVYYCTKDPGGYQKGQGTQVTVSS	good binding activity
h_Nb4: anti-human PD-L1 nanobody, VHH SEQ ID NO: 29 (protein, h_Nb4 Amino acid sequence of VHH) VHH: DVQLQESGGGLVQAGGSLRLSCAAPSRMFSGYTMGWYRQAPGKQRELVAQIANGGFTDYIDSVKGRFSISRDTVLNMMYLQMNSLKPEDTAVYYCNLVLVNGIPTRNWGQGTQVTVSS	good binding activity
